- Measured On: UniProt P31639
- Sequence (P31639 1-672): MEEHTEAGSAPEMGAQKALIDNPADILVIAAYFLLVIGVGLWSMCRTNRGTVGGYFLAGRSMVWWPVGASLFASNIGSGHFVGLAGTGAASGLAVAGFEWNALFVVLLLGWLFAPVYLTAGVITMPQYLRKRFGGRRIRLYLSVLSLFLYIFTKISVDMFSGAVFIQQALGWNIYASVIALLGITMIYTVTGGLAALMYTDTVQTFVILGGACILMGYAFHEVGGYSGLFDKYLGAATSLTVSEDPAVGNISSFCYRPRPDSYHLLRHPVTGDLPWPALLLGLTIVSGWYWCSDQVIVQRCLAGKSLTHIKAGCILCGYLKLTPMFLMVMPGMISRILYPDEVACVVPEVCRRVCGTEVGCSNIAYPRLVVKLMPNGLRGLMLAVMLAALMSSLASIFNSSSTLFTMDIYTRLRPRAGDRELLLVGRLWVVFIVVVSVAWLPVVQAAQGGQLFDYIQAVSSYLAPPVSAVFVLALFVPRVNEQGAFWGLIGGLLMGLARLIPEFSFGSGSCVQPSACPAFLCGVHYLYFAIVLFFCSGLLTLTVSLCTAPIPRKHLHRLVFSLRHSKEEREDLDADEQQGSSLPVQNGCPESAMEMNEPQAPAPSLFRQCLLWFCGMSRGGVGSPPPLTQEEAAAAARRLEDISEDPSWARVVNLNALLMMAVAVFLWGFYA
- Procedure Summary: 14C-AMG uptake in BHK cells transfected with SGLT2 (96-well cell-based assay)
- Study Conditions: 2 mM AMG, 37° C., 90 min
- Text: The compounds can be tested for their SGLT inhibition properties by means of BHK cells expressing SGLT1 and SGLT2. The production of the cells and the testing can be carried out as described below. […] The final vector KL224 together with an additional vector containing a dihydrofolate reductase gene as a selection marker was introduced into cells. […] After growth for 2-3 weeks, the cells were cloned (0.5 cells/well) and the clones were investigated for SGLT expression in radioactivity uptake tests. […]
pIC50: −log10 of the molar value.
Exercise: state measured pIC50 for each of the molecules provided.

As a guide, the following entries are already answered.
cpd_smiles=CNc1nnc(-c2cc(OC)cc(OC)c2-c2nc3ncccn3c2Nc2c(Cl)ccc(C)c2Cl)o1 parameter=pIC50 value_measured="6.00 to 8.00"
cpd_smiles=CNc1nnc(-c2ccccc2-c2nc3ncccn3c2Nc2c(C)noc2C)o1 parameter=pIC50 value_measured="< 5.00"
cpd_smiles=CCc1cccc(OCC(N)=O)c1-c1nc2ncccn2c1Nc1c(Cl)cccc1Cl parameter=pIC50 value_measured="6.00 to 8.00"

// moving on: another record for pIC50
Case CNc1nnc(-c2cc(OC)cc(OC)c2-c2nc3ncccn3c2Nc2c(Cl)cccc2Cl)o1 , UniProt P31639, pIC50 recorded as 6.00 to 8.00

###

- Measured On: SGLT1 (Homo sapiens)
- Sequence (P13866 whole entry): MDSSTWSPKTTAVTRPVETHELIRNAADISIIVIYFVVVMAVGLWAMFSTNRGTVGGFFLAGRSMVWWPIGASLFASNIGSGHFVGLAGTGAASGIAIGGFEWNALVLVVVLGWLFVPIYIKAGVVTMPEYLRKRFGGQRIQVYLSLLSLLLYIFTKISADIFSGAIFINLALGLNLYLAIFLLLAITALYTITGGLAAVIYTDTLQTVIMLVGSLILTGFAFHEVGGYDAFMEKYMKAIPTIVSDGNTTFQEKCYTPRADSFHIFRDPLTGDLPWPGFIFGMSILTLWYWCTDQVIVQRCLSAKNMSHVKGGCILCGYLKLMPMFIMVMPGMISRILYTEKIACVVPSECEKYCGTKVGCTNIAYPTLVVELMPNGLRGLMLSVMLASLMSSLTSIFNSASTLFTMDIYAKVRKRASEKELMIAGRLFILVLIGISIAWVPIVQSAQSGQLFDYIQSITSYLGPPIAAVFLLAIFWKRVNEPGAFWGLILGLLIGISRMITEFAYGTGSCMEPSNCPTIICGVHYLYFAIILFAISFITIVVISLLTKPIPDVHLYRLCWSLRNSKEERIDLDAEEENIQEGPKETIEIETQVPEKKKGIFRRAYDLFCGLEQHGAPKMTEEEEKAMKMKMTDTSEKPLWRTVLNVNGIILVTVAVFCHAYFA
- Procedure Summary: 14C-AMG uptake in BHK cells transfected with SGLT1 (96-well cell-based assay)
- Study Conditions: 50 μM AMG, 37° C., 90 min
- From the text: The compounds can be tested for their SGLT inhibition properties by means of BHK cells expressing SGLT1 and SGLT2. The production of the cells and the testing can be carried out as described below. […] The final vector KL225 together with an additional vector containing a dihydrofolate reductase gene as a selection marker was introduced into cells. […] After growth for 2-3 weeks, the cells were cloned (0.5 cells/well) and the clones were investigated for SGLT expression in radioactivity uptake tests. […]
pIC50: −log10 of the molar value.
Exercise: state measured pIC50 for each of the compounds provided.

As a guide, the following entries are already answered.
compound="CCc1cccc(OCC(N)=O)c1-c1nc2ncccn2c1Nc1c(C)cccc1C [Compound A8]" value_measured="5.00 to 6.00"
compound="Cc1cccc(C)c1Nc1c(-c2ccccc2OCC(N)=O)nc2ncccn12 [Compound A1]" value_measured="< 5.00"

For each listed entry, give its pIC50.
1. CNc1nnc(-c2cc(OC)cc(OC)c2-c2nc3ncccn3c2Nc2c(C)cccc2C)o1 [Compound A11]
2. COc1cc(C)c(-c2nc3ncccn3c2Nc2c(C)cccc2C)c(OCC(N)=O)c1 [Compound A10]
3. COc1cc(OC)c(-c2nc3ncccn3c2Nc2c(Cl)cccc2Cl)c(C(=O)NN)c1 [Compound A18]
4. CCNc1nnc(-c2cc(OC)cc(OC)c2-c2nc3ncccn3c2Nc2c(Cl)cccc2Cl)o1 [Compound A5]

A.
1. 5.00 to 6.00
2. < 5.00
3. < 5.00
4. 5.00 to 6.00

For each listed entry, give its pIC50.
1. CNc1nnc(-c2ccccc2-c2nc3ncccn3c2Nc2c(Cl)cc(F)cc2Cl)o1 [Compound A13]
2. CCc1cc(OC)cc(OCC(N)=O)c1-c1nc2ncccn2c1Nc1c(Cl)cccc1Cl [Compound A12]
3. CCc1cc(OC)cc(OCC(N)=O)c1-c1nc2ncccn2c1Nc1c(C)cccc1C [Compound A9]
4. CNc1nnc(-c2cc(OC)cc(OC)c2-c2nc3ncccn3c2Nc2c(Cl)ccc(C)c2Cl)o1 [Compound A23]

A.
5.00 to 6.00
< 5.00
< 5.00
6.00 to 8.00

###

- Measured On: UniProtKB P31639
- Procedure Summary: 14C-AMG uptake in BHK cells transfected with SGLT2 (96-well cell-based assay)
- Study Conditions: 2 mM AMG, 37° C., 90 min
Exercise: state measured IC50 for each of the compounds provided.

As a guide, the following entries are already answered.
compound="CNc1nnc(-c2cc(OC)cc(OC)c2-c2nc3ncccn3c2Nc2c(C)cccc2C)o1 [Compound A11]" value_measured="10 to 1000 nM"
compound="CNc1nnc(-c2cccc(F)c2-c2nc3ncccn3c2Nc2c(C)cc(F)cc2C)o1 [Compound A27]" value_measured="10 to 1000 nM"
compound="CCc1cccc(OCC(N)=O)c1-c1nc2ncccn2c1Nc1c(C)cccc1C [Compound A8]" value_measured="1000 to 10000 nM"
compound="COc1cc(OC)c(-c2nc3ncccn3c2Nc2c(Cl)cccc2Cl)c(-c2n[nH]c(=O)o2)c1 [Compound A6]" value_measured="1000 to 10000 nM"
compound="Cc1cc(C)n2c(Nc3c(C)cccc3C)c(-c3ccccc3OCC(N)=O)nc2n1 [Compound A2]" value_measured="> 10000 nM"

For each listed entry, give its IC50.
1. CNc1nnc(-c2cccc(Cl)c2-c2nc3ncccn3c2Nc2c(C)cccc2Cl)o1 [Compound A22]
2. COc1cc(OC)c(-c2nc3ncccn3c2Nc2c(Cl)cccc2Cl)c(C(=O)NN)c1 [Compound A18]

A.
1: 10 to 1000 nM; 2: 1000 to 10000 nM

###

Exercise: state measured pIC50 for each of the compounds provided.
- Measured On: SGLT1 (Homo sapiens)
- Procedure Summary: 14C-AMG uptake in BHK cells transfected with SGLT1 (96-well cell-based assay)
- Study Conditions: 50 μM AMG, 37° C., 90 min
pIC50: −log10 of the molar value.

As a guide, the following entries are already answered.
cpd_smiles=CNc1nnc(-c2cccc(Cl)c2-c2nc3ncccn3c2Nc2c(C)cccc2Cl)o1 value_measured="6.00 to 8.00"
cpd_smiles=CCNc1nnc(-c2ccccc2-c2nc3ncccn3c2Nc2c(Cl)cccc2Cl)o1 value_measured="5.00 to 6.00"
cpd_smiles=CNc1nnc(-c2cc(Cl)cc(Cl)c2-c2nc3ncccn3c2Nc2c(C)cccc2C)o1 value_measured="5.00 to 6.00"
cpd_smiles=CNc1nnc(-c2cccc(F)c2-c2nc3ncccn3c2Nc2c(C)cc(F)cc2C)o1 value_measured="5.00 to 6.00"
cpd_smiles=CNc1nnc(-c2ccccc2-c2nc3ncccn3c2Nc2c(C)noc2C)o1 value_measured="< 5.00"

For each listed entry, give its pIC50.
1. COC(=O)c1cccc(Cl)c1-c1nc2ncccn2c1Nc1c(C)cccc1C
2. CNc1nnc(-c2cccc(Cl)c2-c2nc3ncccn3c2Nc2c(C)cccc2C)o1
3. CCNC(=O)c1cc(OC)cc(OC)c1-c1nc2ncccn2c1Nc1c(Cl)ccc(C)c1Cl

A.
["< 5.00", "5.00 to 6.00", "6.00 to 8.00"]

###

- Measured On: SGLT1 (Homo sapiens)
- Procedure Summary: 14C-AMG uptake in BHK cells transfected with SGLT1 (96-well cell-based assay)
- Study Conditions: 50 μM AMG, 37° C., 90 min
- Source text: The compounds can be tested for their SGLT inhibition properties by means of BHK cells expressing SGLT1 and SGLT2. The production of the cells and the testing can be carried out as described below. […] The final vector KL225 together with an additional vector containing a dihydrofolate reductase gene as a selection marker was introduced into cells. […] After growth for 2-3 weeks, the cells were cloned (0.5 cells/well) and the clones were investigated for SGLT expression in radioactivity uptake tests. […]
Parameter: IC50

As a guide, the following entries are already answered.
cpd_smiles=COc1cc(C(N)=O)c(-c2nc3ncccn3c2Nc2c(Cl)cccc2Cl)c(OC)c1OC value_measured="> 10 µM"
cpd_smiles=CNc1nnc(-c2cc(OC)cc(OC)c2-c2nc3ncccn3c2Nc2c(Cl)cc(F)cc2Cl)o1 value_measured="0.01 to 1 µM"
cpd_smiles=COc1cc(OC)c(-c2nc3ncccn3c2Nc2c(Cl)cccc2Cl)c(-c2n[nH]c(=O)o2)c1 value_measured="> 10 µM"
cpd_smiles=CNc1nnc(-c2cccc(F)c2-c2nc3ncccn3c2Nc2c(C)cccc2Cl)o1 value_measured="1 to 10 µM"
cpd_smiles=CCc1cccc(OCC(N)=O)c1-c1nc2ncccn2c1Nc1c(Cl)cccc1Cl value_measured="1 to 10 µM"
cpd_smiles=CNc1nnc(-c2cc(OC)ccc2-c2nc3ncccn3c2Nc2c(C)cccc2C)o1 value_measured="> 10 µM"
cpd_smiles=CNc1nnc(-c2cc(OC)cc(OC)c2-c2nc3ncccn3c2Nc2c(Cl)cccc2Cl)o1 value_measured="0.01 to 1 µM"

// moving on: another record for IC50
The compound listed as Cc1cc(C)n2c(Nc3c(C)cccc3C)c(-c3ccccc3OCC(N)=O)nc2n1 has a reported IC50 of > 10 µM
